molecular target: Short transient receptor potential channel 6 (Mus musculus); assay: mouse TRPC6 channel activators, primary screen, cell-based, HEK293, membrane potential dye (AID 2550); details: HEK293-TRPC6 membrane potential dye fluorescence, at 10 µM;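 also: higher score means more depolarization so channel activation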
The campaign covered roughly 310,000 compounds. About 380 (0.12%) were called active.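 The calls were made as follows: active = B-score of the integrated fluorescence ratio above library mean plus 3 SD, and starting fluorescence ratio within library mean plus 5 SD; inactive = the rest.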 Only a selection was taken, and actives are over-represented in it overall.
Outcomes: True = active, False = inactive

- molecule: "O=[N+]([O-])c1ccccc1N/N=C1\\CCc2ccccc21"
  group: "False"
- molecule: "Cc1cccc(CCNS(=O)(=O)c2ccc3c(c2)NC(=O)CO3)c1"
  group: "False"
- molecule: "CN(c1ccccc1)c1ccc(/C=c2\\s/c(=C(/C#N)C(=O)C(C)(C)C)n(Cc3ccco3)c2=O)cc1"
  group: "True"
- molecule: "CCOC(=O)Cn1c(=O)oc2cc(S(=O)(=O)N(C)Cc3ccco3)ccc21"
  group: "False"
- molecule: "C[C@]1(C(=O)NCCc2c[nH]c3ccccc23)C=C[C@@H](Cc2ccccc2)N1C(=O)c1ccccc1"
  group: "False"
- molecule: "COc1ccc(NC(=S)N2CCC(NC(=O)c3cccc(F)c3)CC2)cc1"
  group: "False"
- molecule: "CC(=O)Nc1ccc(CN2CCC(Oc3ccc(C(=O)N4CCCC4)cc3)CC2)cc1"
  group: "False"
- molecule: "COC(=O)[C@@H]1CC(O)CN1C(=O)C12CC3CC(CC(C3)C1)C2 (stereo not given in full)"
  group: "False"
- molecule: "COc1ccc(S(=O)(=O)NCC(=O)NC2CC2)cc1OC"
  group: "False"
- molecule: "O=C(c1ccc(Cl)cc1)n1cnc2ccccc21"
  group: "False"

====

target: Short transient receptor potential channel 6 (Mus musculus) (UniProt Q61143); assay: mouse TRPC6 channel activators, primary screen, cell-based, HEK293, membrane potential dye (AID 2550); conditions: HEK293-TRPC6 membrane potential dye fluorescence, at 10 µM;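 also: higher score means more depolarization so channel activation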
Sequence (Q61143 whole entry, looked up): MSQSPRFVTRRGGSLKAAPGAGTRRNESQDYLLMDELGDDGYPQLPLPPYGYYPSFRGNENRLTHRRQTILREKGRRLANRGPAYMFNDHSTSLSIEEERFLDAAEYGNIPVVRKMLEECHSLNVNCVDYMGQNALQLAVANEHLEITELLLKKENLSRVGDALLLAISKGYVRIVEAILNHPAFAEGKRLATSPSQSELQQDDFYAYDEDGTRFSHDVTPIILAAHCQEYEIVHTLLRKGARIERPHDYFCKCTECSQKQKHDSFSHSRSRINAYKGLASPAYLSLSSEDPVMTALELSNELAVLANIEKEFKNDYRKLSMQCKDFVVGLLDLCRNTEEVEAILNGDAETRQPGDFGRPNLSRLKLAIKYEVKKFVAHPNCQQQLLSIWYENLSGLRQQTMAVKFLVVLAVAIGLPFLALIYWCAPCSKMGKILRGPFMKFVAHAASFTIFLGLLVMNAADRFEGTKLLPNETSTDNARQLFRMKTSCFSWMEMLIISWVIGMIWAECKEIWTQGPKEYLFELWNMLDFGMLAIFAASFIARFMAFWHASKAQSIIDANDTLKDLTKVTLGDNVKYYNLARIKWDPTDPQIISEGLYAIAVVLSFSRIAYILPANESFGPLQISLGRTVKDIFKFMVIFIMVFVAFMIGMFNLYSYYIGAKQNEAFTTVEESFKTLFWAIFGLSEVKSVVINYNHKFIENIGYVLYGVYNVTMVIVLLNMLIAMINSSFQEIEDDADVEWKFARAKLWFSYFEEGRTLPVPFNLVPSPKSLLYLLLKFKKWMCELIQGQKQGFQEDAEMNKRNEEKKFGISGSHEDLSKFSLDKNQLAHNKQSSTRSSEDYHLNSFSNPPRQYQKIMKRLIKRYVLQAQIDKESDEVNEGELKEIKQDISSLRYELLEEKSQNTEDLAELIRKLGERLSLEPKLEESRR
The whole screen tested about 310,000 compounds, of which about 380 (0.12%) were called active.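 Rule for the calls: active = B-score of the integrated fluorescence ratio above library mean plus 3 SD, and starting fluorescence ratio within library mean plus 5 SD; inactive = the rest.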 The full list was thinned out, with actives kept by preference.
Outcomes: active, inactive

- molecule: "O=S(=O)(NC(=S)Nc1ccccc1)c1ccc(F)cc1"
  group: "inactive"
- molecule: "CCn1cc(/C=C(\\NC(=O)c2cc(OC)c(OC)c(OC)c2)C(=O)N2CCN(C)CC2)c2ccccc21"
  group: "inactive"
- molecule: "COc1ccc(NC(=O)CS(=O)(=O)c2ccccc2)cc1"
  group: "inactive"
- molecule: "CC(=O)N/C(=C/c1ccc(Cl)cc1)C(=O)NCCc1c[nH]c2ccccc12"
  group: "inactive"
- molecule: "Cc1nn(C)c(C)c1S(=O)(=O)N1CCC(CO)(Cc2ccc(Cl)cc2)CC1"
  group: "inactive"
- molecule: "COc1ccc2[nH]c(=O)c(CNc3ccc(C)c(C)c3)cc2c1"
  group: "inactive"
- molecule: "CCn1cc(C(=O)N2CC=C(c3ccccc3)CC2)c(=O)c2ccc(C)nc21"
  group: "inactive"
- molecule: "COc1cccc(CNC(=O)C2CC(=O)N(C3CCCCCCC3)C2)c1 (stereo not given)"
  group: "inactive"
- molecule: "COC(=O)c1ccc(NC(=O)CSc2nnc(-c3ccncc3)n2C)cc1"
  group: "active"
- molecule: "Cc1cc(C)nc(SC(C)C(=O)N/N=C/c2cccs2)n1 (stereo not given)"
  group: "inactive"
- molecule: "CCOCCCN(C)C1CCN(C(=O)c2oc3ccccc3c2NC(=O)Cc2cccc([N+](=O)[O-])c2)CC1"
  group: "inactive"
- molecule: "COC(=O)c1ccc(NC(=O)CSc2nnc(CNc3ccc(OC)cc3)n2C)cc1"
  group: "inactive"
- molecule: "Cc1c(S(=O)(=O)NC(C)c2ccccc2)c(=O)n(C)c(=O)n1C (stereo not given)"
  group: "inactive"
- molecule: "COc1ccc(CCC(=O)c2ccc(OC)cc2)cc1"
  group: "inactive"
- molecule: "Cc1ccc(N(CCC(=O)O)S(=O)(=O)c2cccc(C(F)(F)F)c2)cc1"
  group: "inactive"
